The reader will find reported DC50 values listed item by item below.
SYSTEM: EGFR L858R/T790M/C797S (BaF3-LTC cells) (Homo sapiens, UniProt P00533, C797S/L858R/T790M)
Construct: expressed in transfected cells; host or cells: BaF3
Sequence (P00533 25-1210 T790M/C797S/L858R): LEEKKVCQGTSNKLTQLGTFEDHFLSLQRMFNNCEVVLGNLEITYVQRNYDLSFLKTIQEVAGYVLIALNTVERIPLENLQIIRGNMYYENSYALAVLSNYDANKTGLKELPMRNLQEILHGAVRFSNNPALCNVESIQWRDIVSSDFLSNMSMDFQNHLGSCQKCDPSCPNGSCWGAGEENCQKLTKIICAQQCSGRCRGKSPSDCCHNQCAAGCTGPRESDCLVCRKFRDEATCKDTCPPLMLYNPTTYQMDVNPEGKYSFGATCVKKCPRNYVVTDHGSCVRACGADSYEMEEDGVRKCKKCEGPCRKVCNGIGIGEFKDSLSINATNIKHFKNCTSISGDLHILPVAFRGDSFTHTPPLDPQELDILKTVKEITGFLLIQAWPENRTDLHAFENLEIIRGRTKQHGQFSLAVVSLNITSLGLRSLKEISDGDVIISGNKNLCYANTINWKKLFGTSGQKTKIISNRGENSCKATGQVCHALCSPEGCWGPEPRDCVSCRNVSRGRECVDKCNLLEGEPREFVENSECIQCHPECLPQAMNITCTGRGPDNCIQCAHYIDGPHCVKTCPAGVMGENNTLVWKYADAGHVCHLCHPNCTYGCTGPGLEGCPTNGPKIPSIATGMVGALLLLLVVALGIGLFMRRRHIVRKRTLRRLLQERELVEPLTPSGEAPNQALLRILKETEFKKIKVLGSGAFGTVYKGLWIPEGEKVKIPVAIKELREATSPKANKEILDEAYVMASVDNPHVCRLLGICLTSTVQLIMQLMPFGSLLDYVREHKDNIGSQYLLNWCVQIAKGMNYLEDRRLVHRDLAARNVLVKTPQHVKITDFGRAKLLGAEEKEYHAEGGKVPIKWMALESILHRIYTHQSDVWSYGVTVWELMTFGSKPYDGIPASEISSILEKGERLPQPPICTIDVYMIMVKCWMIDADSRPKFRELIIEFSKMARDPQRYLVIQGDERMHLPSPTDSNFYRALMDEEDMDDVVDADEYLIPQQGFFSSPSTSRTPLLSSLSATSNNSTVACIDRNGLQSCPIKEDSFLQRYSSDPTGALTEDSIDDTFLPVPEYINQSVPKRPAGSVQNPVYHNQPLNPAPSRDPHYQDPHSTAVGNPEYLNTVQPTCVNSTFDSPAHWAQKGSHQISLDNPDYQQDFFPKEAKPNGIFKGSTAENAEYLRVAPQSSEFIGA
TEST_PROTOCOL: EGFR degradation HTRF assay, BaF3-LTC cells
Assay type: cell-based
CONDITION_CONTEXT: BaF3-LTC, 16h treatment; read-out: LTC DC50
// return numeric value only (unit: nM, not printed)

COc1cc(N2CCC(N3CCN(CCC4CCN(c5cc(F)c(C6CCC(=O)NC6=O)c(F)c5)CC4)CC3=O)CC2)c(C)cc1Nc1ncc(Br)c(Nc2ccc3nccnc3c2P(C)(C)=O)n1 (stereo not drawn) [Example 216] = 23.3
CCc1cc(Nc2ncc(Br)c(Nc3ccc4nccnc4c3P(C)(C)=O)n2)c(OC)cc1N1CCC(N2CCN(C[C@H]3C[C@H](c4ccc(NC5CCC(=O)NC5=O)cc4)C3)CC2)CC1 (stereo partly drawn) [Example 284] = 81.4

Exercise: Param item = CP(C)(=O)c1c(Nc2nc(Nc3ccc(N4CCN(C5CN(CCC6CCN(c7ccc(C8CCC(=O)NC8=O)c(F)c7)CC6)C5)CC4)c(F)c3)ncc2Br)ccc2nccnc12 (stereo not drawn) [Example 203] ; retrieve measured DC50.
Key: 17

* * *

Test system: EGFR Del19/T790M/C797S (H1975-clone #28)
TEST_PROTOCOL: EGFR degradation HTRF assay, H1975-clone #28 DTC cells
Type: cell-based
CONDITION_CONTEXT: H1975 # 28 DTC cells; maximum percentage of inhibition (degradation)
Experimental: H1975-clone #28(Del19/T790M/C797S) and H1975-clone #23(Del19/C797S). EGFR-Del19/T790M/C797S and EGFR-Del19/C797S were stably expressed in H1975 cell lines by lentivirus-mediated over-expression, respectively. […] The inhibition (degradation) percentage of the compound was calculated by the following equation: Inhibition percentage of Compound=100-100×(Signal-low control)/(High control-low control), wherein signal=each test compound group […]
The reader will find reported Dmax (%) H1975 # 28 DTC values listed item by item below.
// return numeric value only (unit: %, not printed)

Example cases with answers are listed next.
CCOc1cc(N2CCC(N3CCN(C(=O)[C@@H]4CCN(c5cc(F)c([C@H]6CCC(=O)NC6=O)c(F)c5)C4)CC3)CC2)c(CC)cc1Nc1ncc(Br)c(Nc2ccc3nc(C)ccc3c2P(C)(C)=O)n1 [Example 531] = 74.06
CCOc1cc(N2CCC(N3CCN(CCc4c(C)c(F)cc5c4oc(=O)n5C4CCC(=O)NC4=O)CC3)CC2)c(CC)cc1Nc1ncc(Br)c(Nc2cc(F)c3nc(CC)ccc3c2P(C)(C)=O)n1 (centres unmarked) [Example 593] = 76.9
CCc1ccc2c(P(C)(C)=O)c(Nc3nc(Nc4cc(CC)c(N5CCC(N6CCN(CCc7cccc8c7n(C7CC7)c(=O)n8C7CCC(=O)NC7=O)CC6)CC5)cc4OC)ncc3Br)ccc2n1 (centres unmarked) [Example 454] = 78.41
CCOc1cc(N2CCC(N3CCN(CCc4c(F)ccc5c4n(C)c(=O)n5C4CCC(=O)NC4=O)CC3)CC2)c(CC)cc1Nc1ncc(Br)c(Nc2ccc3nc(CC)ncc3c2P(C)(C)=O)n1 (centres unmarked) [Example 736] = 81.93

Next up:
Exercise: Find Dmax (%) H1975 # 28 DTC (EGFR Del19/T790M/C797S (H1975-clone #28)) for the entry CCc1ccc2c(P(C)(C)=O)c(Nc3nc(Nc4cc(CC)c(N5CCC(N6CCN(CCc7cccc8c7oc(=O)n8C7CCC(=O)NC7=O)CC6)CC5)cc4OC)ncc3Br)ccc2n1 (centres unmarked) [Example 509]
Key: 79.34
